# Test system: SF-268
# Assay Overview: NCI tumour cell line growth inhibition, 48 h
Active and inactive are the calls of the source. Cut-off read from the data, not from the text of the source: active = GI50 up to about 1.1 µM and inactive = higher.
Parameter: GI50

Example entries and their recorded answers appear below.
Compound	Parameter	Value Reported
COc1ccc(/N=C2\C(=O)Nc3ccc(Br)cc32)cc1	GI50	18.4 µM (inactive)
CC(C)(CN1C(=O)C(Cl)=C(Cl)C1=O)CN1C(=O)C(Cl)=C(Cl)C1=O	GI50	19.1 µM (inactive)
C=C1C(=O)OC2C1C(OC(=O)/C(C)=C\C)CC1(CO1)C1C(O)C=C(C)C21O (stereo not given)	GI50	2.64 µM (inactive)

Lookup: State the recorded GI50 for this entry: COc1cc(/C=C2\CCC(C)c3c2nc(N)c(C#N)c3-c2cc(OC)c(OC)c(OC)c2)cc(OC)c1OC (stereo not given)
Found: 25.7 µM (inactive)

Lookup: State the recorded GI50 for this entry: "N[C@@H]1CCN(c2c(F)cc3c(=O)c(C(=O)O)cn4c3c2Oc2c-4ccc3c2ccc2ccccc23)C1"
Found: 5.73 µM (inactive)

* * *

# Tested on: MOLT-4
# Assay Overview: NCI tumour cell line growth inhibition, 48 h
Activity calls are given as the source filed them. Rule as the data show it: active = GI50 up to about 1.1 µM and inactive = higher.
Form entry, call: pick from 1.0 (active), 0.0 (inactive)

Example cases with answers are listed next.
Molecule	Assigned Label
CC(=O)OCC1OC(n2cc(F)c(=O)[nH]c2=O)C(NC(=O)OCc2ccccc2)C(OC(C)=O)C1OC(C)=O (stereo unspecified)	0.0
COc1ccc(-n2cnn3c(=O)c4cn[nH]c4nc23)cc1	0.0
COc1ccc(COC2CC(OC)OC(C)C2OC(=O)c2ccccc2)cc1 (stereo unspecified)	0.0
Cc1ccc(-c2n[nH]c(CC#N)n2)cc1	0.0
C#Cc1c(C)c(/C=C/C(C)=C\C(=O)OC)n(C)c1C	0.0

Lookup: Could you kindly confirm the outcome this assay logged for O=[N+]([O-])c1ccc(C(O)/C(=N/O)c2nc3ccc(Cl)cc3nc2O)cc1 (stereo unspecified) ?
Found: 0.0

Lookup: Could you kindly confirm the outcome this assay logged for "CCOC(=O)CCCO" ?
Found: 0.0

Lookup: Could you kindly confirm the outcome this assay logged for CC1CN=C(N(C(=O)Nc2ccccc2)c2ccc(Cl)c(Cl)c2)S1 (stereo unspecified) ?
Found: 0.0

Lookup: Could you kindly confirm the outcome this assay logged for CC(C)=C1C(=O)C[C@@]2(C)C[C@H]3OC3(C)CC/C=C(/C)CCC12 (stereo partly specified) ?
Found: 0.0

* * *

Entries and their GI50
# System: NCI-H460
# Assay Overview: NCI tumour cell line growth inhibition, 48 h
Activity calls are given as the source filed them. Rule as the data show it: active = GI50 up to about 1.1 µM and inactive = higher.

Molecule	Measurement Target	GI50
COC(=O)c1sc(=NC(=S)N2CCCCC2)sc1C(=O)OC	NCI-H460	6.38 µM (inactive)

Lookup: Can you look up GI50 on NCI-H460 for "CC(C)c1cc(C(F)(F)F)nc(NNc2nc(C(C)C)cc(C(F)(F)F)n2)n1" ?
Found: 62.8 µM (inactive)

Lookup: Can you look up GI50 on NCI-H460 for "Cn1cnc([N+](=O)[O-])c1Sc1nnc(-c2ccc(Cl)cc2)n1C" ?
Found: 20.7 µM (inactive)

Lookup: Can you look up GI50 on NCI-H460 for "O=C(O)c1ccc(OCc2ccccc2)c(Cl)c1" ?
Found: > 100 µM (inactive)

Lookup: Can you look up GI50 on NCI-H460 for "CCCCn1c(N)c(-c2nc3ccccc3o2)sc1=S" ?
Found: 15.8 µM (inactive)

Lookup: Can you look up GI50 on NCI-H460 for "COc1cc(N/N=C/C#N)cc(OC)c1OC" ?
Found: > 10 µM (inactive)
